Assay: Cytotoxicity against HepG2
Assay type: cell-based
Settings: human, HepG2 cells (ATCC HB-8065), 5 days exposure
Measure name: CC50 at 5 days (µM)
// return numeric value only (unit: µM, not printed)

Please review the entries below; each comes with its answer.
{"columns": ["Compound", "CC50 at 5 days [µM]"],
 "data": [
  ["CNC(=O)c1ccc(-c2cnn3ccc(C(=O)N(c4ccc(C#N)cc4)C4CC4)cc23)cn1 [Example 137]", 2.19],
  ["CCN(C(=O)c1ccn2ncc(-c3ccc(C(=O)NC)cc3)c2c1)c1ccc(C#N)c(OCCO)n1 [Example 162]", 24.4],
  ["CN(C(=O)c1ccc(C#N)cc1)c1ccn2ncc(-c3ccc(C(F)(F)F)cc3)c2c1 [Example 28]", 9.9],
  ["N#Cc1ccc(N(C(=O)c2ccn3ncc(-c4ccc(C(=O)NC5CC5)cc4)c3c2)C2CC2)nc1 [Example 123]", 17.2]
]}

Kindly review the next compound as well.
What CC50 at 5 days value was documented for this compound, CN(C(=O)c1ccn2ncc(-c3ccc(C(N)=O)cc3)c2c1)c1ccc(Cl)cc1 [Example 100] ? 13.3
